system: mouse cortical neuron cultures; details: mouse, 24 h, 10 µM
Assignment: determine reported % Dead cells (vehicle subtracted) for the given compounds.
Numbers only, in %.

See these solved cases before continuing.
Nc1nc(N)nc(NC2CC2)n1    -4.3436
c1ccc2[nH]c(-c3cscn3)nc2c1    -3.658
C=C(C)CN(CC)c1c([N+](=O)[O-])cc(C(F)(F)F)cc1[N+](=O)[O-]    1.146
CCOC(=O)NC(=S)Nc1ccccc1NC(=S)NC(=O)OCC [Thiophanate]    -1.666
C[Si](Cn1cncn1)(c1ccc(F)cc1)c1ccc(F)cc1    -0.05737
CCCCOC(=O)c1ccccc1C(=O)OCCCC [Dibutyl phthalate]    -2.722
N#Cc1c(Cl)cccc1Cl    8.856
CCCCOCCOCCOCc1cc2c(cc1CCC)OCO2 [Piperonyl butoxide]    -3.535

# per-item lookup of % Dead cells (vehicle subtracted); items listed below
1. C#CCOC(=O)[C@@H](C)Oc1ccc(Oc2ncc(Cl)cc2F)cc1
2. O=P(O)(O)CCCl

result:
-2.625
-0.1299

Hi, could you look up % Dead cells (vehicle subtracted) for each item in my list?
1. COC(=O)NS(=O)(=O)c1ccc(N)cc1
2. COC(=O)N(C(=O)N1CO[C@@]2(C(=O)OC)Cc3cc(Cl)ccc3C2=N1)c1ccc(OC(F)(F)F)cc1

result:
1: 1.255; 2: 0.6208
